# procedure-summary: Solution in polyethylene glycol monomethyl ether (7 EO)
# Type: physicochemical
# condition-details: dissolved in polyethylene glycol monomethyl ether (7 EO), room temperature, based on the total solution
readout-name: fraction of the compound in the accessible solution

Note fraction of the compound in the accessible solution for the molecule shown: COc1cc(O)c(C(=O)c2ccccc2)cc1S(=O)(=O)O
more than 10 % by weight

Quote fraction of the compound in the accessible solution reported for O=C(O)c1ccccc1O [Salicylic acid, reference compound] please.
more than 10 % by weight

Consider the molecule CCCCC(CC)COC(=O)c1ccc(Nc2nc(Nc3ccc(C(=O)OCC(CC)CCCC)cc3)nc(Nc3ccc(C(=O)OCC(CC)CCCC)cc3)n2)cc1 (stereo not shown) . State its measured fraction of the compound in the accessible solution.
60 % by weight
